Please go through the items and note down their GI50.
- Test system: Colon cancer cell lines
- Procedure details: NCI anticancer screen, SRB assay, panel summary
- Type: cell-based, human
- Experimental parameters: Homo sapiens; seven colon cancer cell lines; exposure at least 48 hrs; read-out: GI50, range over the panel

Molecule: COc1cc(/C=C/C(=O)c2cccc(-n3cc(-c4ccccc4)[nH]c3=O)c2)ccc1O [3a]
GI50: 1.4 to 3.77 µM
//
Molecule: O=C(/C=C/c1cccc(O)c1)c1cccc(-n2cc(-c3ccccc3)[nH]c2=O)c1 [4a]
GI50: 1.83 to 4.09 µM
//
Molecule: O=C(/C=C/c1cccc(O)c1)c1cccc(-n2cc(-c3ccc(Cl)cc3)[nH]c2=O)c1 [4f]
GI50: 1.23 to 13.7 µM
//
Molecule: COc1cc(/C=C/C(=O)c2cccc(-n3cc(-c4ccccc4)[nH]c3=O)c2)cc(OC)c1OC [5a]
GI50: 0.33 to 1.51 µM
//
Molecule: COc1cc(/C=C/C(=O)c2cccc(-n3cc(-c4ccc(Cl)cc4)[nH]c3=O)c2)ccc1O [3f]
GI50: 1.46 to 3.4 µM
//
Molecule: COc1cc(/C=C/C(=O)c2cccc(-n3cc(-c4cc(OC)c(OC)c(OC)c4)[nH]c3=O)c2)cc(OC)c1OC [5d]
GI50: 0.74 to 1.92 µM
//
Molecule: COc1ccc(-c2cn(-c3cccc(C(=O)/C=C/c4ccc(O)c(OC)c4)c3)c(=O)[nH]2)cc1 [3b]
GI50: 1.77 to 6.61 µM

Now take the following molecule into account.
Query: Fill in: GI50 of O=C(/C=C/c1cccc(O)c1)c1cccc(-n2cc(-c3ccc4ccccc4c3)[nH]c2=O)c1 [12b] is ___
Reply: 0.22 to 2.13 µM

###

- System: SF-539 (CNS)
- Procedure details: NCI anticancer screen, SRB assay, 48 h
- Type: cell-based, human
- Experimental parameters: Homo sapiens, 48 h exposure, SRB, read-out: GI50
- Method: Some of biological activity studies were carried out at the National Cancer Institute (NCI), Maryland, USA. The compounds were evaluated for anticancer activity against fifty three human cancer cells derived from nine cancer types (leukemia cell line, non-small-cell lung cell line, colon cell line, CNS cell line, melanoma cell line, ovarian cell line, prostate cell line, and breast cancer cell line) as shown in Table 1. […]
Experimental endpoint: GI50 (nM)
One number for each entry, in nM.

Compound: O=C(/C=C/c1cccc(O)c1)c1cccc(-n2cc(-c3ccc4ccccc4c3)[nH]c2=O)c1 [12b]
Unit info: nM
GI50: 1550
//
Compound: COc1cc(/C=C/C(=O)c2cccc(-n3cc(-c4cc(OC)c(OC)c(OC)c4)[nH]c3=O)c2)cc(OC)c1OC [5d]
Unit info: nM
GI50: 3120
//
Compound: COc1cc(/C=C/C(=O)c2cccc(-n3cc(-c4ccccc4)[nH]c3=O)c2)cc(OC)c1OC [5a]
Unit info: nM
GI50: 1680

Now take the following compound into account.
Query: API: value(readout=GI50, system=SF-539 (CNS)) for record O=C(/C=C/c1cccc(O)c1)c1cccc(-n2cc(-c3ccc(Cl)cc3)[nH]c2=O)c1 [4f]
Reply: 1680

###

Please go through the items and note down their GI50.
- Test system: SN12C (renal)
- Procedure details: NCI anticancer screen, SRB assay, 48 h
- Format: cell-based, human
- Experimental parameters: Homo sapiens, SN12C; SN 12C; read-out: pGI50 (-log of molar concentration causing 50% inhibition of net cell growth) (converted)
Give bare numbers, in µM.

Check out these entries, answers already filled in.
Input smiles: COc1cc(/C=C/C(=O)c2cccc(-n3cc(-c4ccccc4)[nH]c3=O)c2)ccc1O
Recorded result: 3.31
--
Input smiles: COc1cc(/C=C/C(=O)c2cccc(-n3cc(-c4ccc(Cl)cc4)[nH]c3=O)c2)ccc1O
Recorded result: 2.88
--
Input smiles: COc1cc(/C=C/C(=O)c2cccc(-n3cc(-c4cc(OC)c(OC)c(OC)c4)[nH]c3=O)c2)cc(OC)c1OC
Recorded result: 2.75

Now take the following molecule into account.
Query: Fill in: GI50 of COc1cc(/C=C/C(=O)c2cccc(-n3cc(-c4ccccc4)[nH]c3=O)c2)cc(OC)c1OC is ___
Reply: 2.09
